# ASSAY_SYSTEM: human RAF1 (Homo sapiens (Human))
# Sequence (P04049 whole entry): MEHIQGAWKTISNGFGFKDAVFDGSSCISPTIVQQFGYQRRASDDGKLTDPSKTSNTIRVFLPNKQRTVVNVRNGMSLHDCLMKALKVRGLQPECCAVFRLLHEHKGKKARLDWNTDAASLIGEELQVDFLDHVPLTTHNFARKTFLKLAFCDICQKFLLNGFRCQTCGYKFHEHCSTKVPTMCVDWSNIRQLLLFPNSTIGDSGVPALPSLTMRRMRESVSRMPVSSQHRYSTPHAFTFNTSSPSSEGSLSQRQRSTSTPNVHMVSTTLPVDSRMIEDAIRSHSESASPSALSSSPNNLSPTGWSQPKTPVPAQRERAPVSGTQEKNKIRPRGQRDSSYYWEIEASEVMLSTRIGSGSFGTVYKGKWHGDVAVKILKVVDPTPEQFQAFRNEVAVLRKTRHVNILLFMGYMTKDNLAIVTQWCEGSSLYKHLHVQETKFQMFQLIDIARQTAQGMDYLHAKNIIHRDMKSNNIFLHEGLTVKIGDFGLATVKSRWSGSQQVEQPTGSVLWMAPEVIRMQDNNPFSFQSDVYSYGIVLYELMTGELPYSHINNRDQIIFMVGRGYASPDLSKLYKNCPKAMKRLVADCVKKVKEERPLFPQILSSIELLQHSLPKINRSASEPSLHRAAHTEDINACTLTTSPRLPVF
# ASSAY_OVERVIEW: Protein kinase assay (radiometric 33P-ATP, MEK1 (K97R) substrate)
# ASSAY_CONTEXT: substrate human MEK1 (K97R) 3 micromolar, ATP 10 micromolar, 3-fold dilution from 10 micromolar, read-out: RAF-1 IC50
pIC50: −log10 of the molar value.
READOUT_KIND: pIC50

COMPOUND	ASSAY_SYSTEM	RESULT
C#Cc1nc2nc(NC)ncc2cc1-c1cc(NC(=O)c2ccnc(C(F)(F)F)c2)ccc1C	human RAF1 (Homo sapiens (Human))	≥ 8.00
CNc1ncc2cc(-c3cc(NC(=O)N4CC[C@H](OC(F)F)C4)c(F)cc3C)cnc2n1	human RAF1 (Homo sapiens (Human))	≥ 8.00
CNc1ncc2cc(-c3cc(NC(=O)N4CCOC(C(F)(F)F)C4)ccc3C)cnc2n1 (stereo in doubt)	human RAF1 (Homo sapiens (Human))	≥ 8.00

Taken from patent US11667634B2.
